Data provenance: PubChem BioAssay AID589

Assay Procedure: qHTS Assay for Spectroscopic Profiling in 4-MU Spectral Region
Condition Parameters: compound autofluorescence, 340/450 nm, 4-MU equivalents
Among all 59,000 compounds or so, about 6,200 (11%) were called active. Not shown: some 9% with an inconclusive outcome. No stated cut-off is given here; in the data, active means max dye-equivalent concentration above about 10 nM; inconclusive means mostly about 1.1 nM to 9.6 nM; inactive means weaker than that. The full list was thinned out, with actives kept by preference.
Use one of these outcomes when replying: label 1 = active, label 0 = inactive

CCC(c1nnnn1Cc1ccco1)N(Cc1cc2cc(OC)ccc2[nH]c1=O)C1CCCCC1 (stereo not given) ... label 1
Cc1cccc2cc(CN(Cc3cccs3)C(c3nnnn3C3CCCC3)C(C)C)c(=O)[nH]c12 (stereo not given) ... label 0
O=C(CN(CC1CCCO1)C(=O)CNS(=O)(=O)c1ccccc1)NCc1ccccc1 (stereo not given) ... label 0

Inquiry: Please let me know the test result on file for CCOc1ccc2[nH]c(=O)c(CN(Cc3nnnn3CCc3ccccc3)CC3CCCO3)cc2c1 (stereo not given) .
Reply text: label 1

Inquiry: Test call for this compound, please: COc1ccc2[nH]c(=O)c(CN(CC3CCCO3)C(=O)Nc3ccccc3)cc2c1 (stereo not given)
Reply text: label 1

Inquiry: Look up the recorded call for N#C/C(=C1\CCCN1)c1nc(-c2ccccc2)cs1 in this test.
Reply text: label 0

Inquiry: Hi, do you know how Cn1c(/C(C#N)=C2/CCCCCN2)nc2ccccc21 came out in this test?
Reply text: label 1

Inquiry: So what was the verdict on Cc1cccc2cc(CN(Cc3ccc4c(c3)OCO4)Cc3nnnn3C3CCCC3)c(=O)[nH]c12 in this test?
Reply text: label 0

Inquiry: # fetch the recorded call for COc1ccccc1N1CCN(Cc2nnnn2CCc2ccccc2)CC1 here
Reply text: label 0

Inquiry: Assay outcome for CC(c1ccco1)N(C(=O)c1ccc(S(=O)(=O)N2CCCCC2)cc1)c1ccccn1 (stereo not given) : what was it?
Reply text: label 0
